Reported TGI values are given for each entry in this list.
Test system: SK-MEL-5 melanoma
Assay: NCI tumour cell line growth inhibition, 48 h

COc1cc2c(cc1OC)C1c3ccccc3CCN1CC2 (stereo unspecified) = > 100 µM
Cc1sc(C(=O)Nc2cc(C(=O)NCCCN(C)C)n(C)c2)cc1NC(=O)CCCN1C(=O)c2cccc3cccc(c23)C1=O = > 100 µM
CCOC(=O)C1=C(C(C)=O)CSC(c2ccccc2)=N1 = > 100 µM
O=C1CCC(=Nc2ccc(Cl)cc2)N1C(=O)COc1ccc(OCC(=O)N2C(=O)CSC2=Nc2ccc(Cl)cc2)cc1 = > 100 µM
CN1CCN(CCc2cccc(C(=O)c3cnn(-c4ccc(F)cc4)c3N)c2)CC1 = > 25 µM

The compound Nc1ccn(Cc2ccc(C34CC5CC(CC(C5)C3)C4)c(O)c2)c(=O)n1 showed TGI equal to > 100 µM

The compound Cc1nn(C(=O)Cc2ccccc2)c2c1C(c1ccccc1O)SC(N)=N2 (stereo unspecified) showed TGI equal to > 100 µM

The compound O=[N+]([O-])C(=C(N1CCCCC1)N1CCCCC1)/C(Cl)=C(\Cl)Br showed TGI equal to 46 µM

The compound Cc1cc(C)c2c(=O)n(CN3CC4Nc5ccccc5C4C3)sc2n1 (stereo unspecified) showed TGI equal to > 100 µM

The compound Nc1c(C(=O)Nc2cccc([N+](=O)[O-])c2)sc2nc3c(cc12)C(O)CCC3 (stereo unspecified) showed TGI equal to > 100 µM

The compound COc1cccc(NC(=O)CC(=O)N2N=C(N(CCC#N)c3ccc(Cl)cc3)CC2c2ccccc2)c1 (stereo unspecified) showed TGI equal to > 100 µM
